# System: 786-O
# EXPERIMENT: Euclidean distance of Cell Painting phenotypic profile (signed KS, 77 features) to DMSO centroid (dimensionless distance); 5 or 10 uM (library dependent); higher = stronger phenotypic change vs DMSO (phenoactivity)
# TEST_CONTEXT: 48 h
Entries and their measured Euclidean distance follow.
In your answer, state the number alone without any accompanying words.

Answered cases to consult:
O=[N+]([O-])c1ccc(O)c2ncccc12 :: 2.71
Cc1noc(NS(=O)(=O)c2ccc(N)cc2)c1C :: 1.32
CCOC(=O)CC(=O)N1CCSC1COc1ccccc1OC (centres undefined) :: 1.45

# next molecule below
Problem: Recorded Euclidean distance for O=c1ccc2ccccc2o1 , please?
Solution: 1.02

###

# Test system: A549
# EXPERIMENT: Euclidean distance of Cell Painting phenotypic profile (signed KS, 77 features) to DMSO centroid (dimensionless distance); 5 or 10 uM (library dependent); higher = stronger phenotypic change vs DMSO (phenoactivity)
# TEST_CONTEXT: 48 h
READOUT_KIND: Euclidean distance

Previously resolved entries follow.
O=C(Nc1c[nH]nc1-c1nc2ccc(CN3CCOCC3)cc2[nH]1)NC1CC1 :: 3.01
CC(C)CN(C[C@@H](O)[C@H](Cc1ccccc1)NC(=O)O[C@H]1CO[C@H]2OCC[C@H]21)S(=O)(=O)c1ccc(N)cc1 [Darunavir Ethanolate] :: 0.867
Cc1cc(C2CCCCC2)n(O)c(=O)c1 [Ciclopirox] :: 2.85

Problem: Recorded Euclidean distance for Cc1cc2c(cc1CC(=O)c1sccc1S(=O)(=O)Nc1onc(C)c1Cl)OCO2 [Sitaxentan sodium] with A549, please?
Solution: 0.821

Problem: Check CCOC(=O)C1=C(COCCN)NC(C)=C(C(=O)OC)[C@@H]1c1ccccc1Cl [Levamlodipine] too.
Solution: 0.702

###

# Test system: A549
# EXPERIMENT: Euclidean distance of Cell Painting phenotypic profile (signed KS, 77 features) to DMSO centroid (dimensionless distance); 5 or 10 uM (library dependent); higher = stronger phenotypic change vs DMSO (phenoactivity)
# TEST_CONTEXT: 48 h
Counter-ions that a name gives are not always drawn.
READOUT_KIND: Euclidean distance

Here is how some molecules turned out for Euclidean distance.
CCc1cc(C(N)=O)ccc1-n1nc(C(C)C)c2c(-n3cnc(-c4cnn(C)c4)c3)ccnc21 :: 3.06
Nc1ccncc1N [3.4-Diaminopyridine] :: 1.24
CCN(CC)CC(=O)Nc1c(C)cccc1C [Lidocaine hydrochloride] :: 0.8
COc1ccc(C2OCC3C(c4cc(OC)c(OC)c(OC)c4)OCC23)cc1OC (stereo not given) [Magnolin] :: 0.78

We next turn to a different molecule, shown below.
Problem: Entry O=C(O)Cc1cccc(OCCCN(Cc2cccc(C(F)(F)F)c2Cl)CC(c2ccccc2)c2ccccc2)c1 has what Euclidean distance?
Solution: 0.78

###

# Test system: HEPG2
# EXPERIMENT: Euclidean distance of Cell Painting phenotypic profile (signed KS, 77 features) to DMSO centroid (dimensionless distance); 5 or 10 uM (library dependent); higher = stronger phenotypic change vs DMSO (phenoactivity)
# TEST_CONTEXT: 48 h
Structures can show the parent of a compound that is named as a salt.
Tick YES if Euclidean distance is 1 or greater. Tick NO if Euclidean distance is less than 1.

CC(C)OC(=O)[C@H](C)N[P@](=O)(OC[C@H]1O[C@@H](n2ccc(=O)[nH]c2=O)[C@](C)(F)[C@@H]1O)Oc1ccccc1 :: NO
CNCCCN1c2ccccc2CCc2ccccc21 [Desipramine Hydrochloride] :: YES
CNC1(C)C2CCC(C2)C1(C)C (configuration not stated) [Mecamylamine Hydrochloride] :: NO
COc1ccc(C2CC(=O)c3c(O)cc(OC4OC(COC5OC(C)C(O)C(O)C5O)C(O)C(O)C4O)cc3O2)cc1OC (configuration not stated) :: NO
NS(=O)(=O)c1cc2c(cc1C(F)(F)F)NC(Cc1ccccc1)NS2(=O)=O (configuration not stated) [Bendroflumethiazide] :: YES
CC(C)c1nc(CN(C)C(=O)N[C@H](C(=O)N[C@@H](Cc2ccccc2)C[C@H](O)[C@H](Cc2ccccc2)NC(=O)OCc2cncs2)C(C)C)cs1 :: YES

Problem: Reported Euclidean distance at or above 1? COc1ccc2[nH]c([S@@+]([O-])Cc3ncc(C)c(OC)c3C)nc2c1 [Esomeprazole Sodium]
Solution: YES
